- procedure-text: NCI Yeast Anticancer Drug Screen. Data for the mlh1 rad18 strain (AID 175)
- experimental-context: S. cerevisiae mlh1 rad18 strain growth inhibition; at 50.0 µM; hits give high values
- Experimental: Growth inhibition of yeast strains with defined genetic alterations is measured as a screen for potential anti-cancer activity. Selected strains with alterations in DNA damage repair or cell cycle control were exposed to compounds and growth inhibition was measured relative to vehicle treated controls. The strain used in this assay is mlh1 rad18
Compounds without any hit were thinned out: in the full panel of roughly 79,000, 15% have a hit. Calls of active or inactive are those of the source. Cut-off read from the data, not from the text of the source: active = growth inhibition above about 70%; inactive = the rest.
# Lookup of reported growth inhibition keyed by entry

CC(C)C1CC(O)C(C)C(C(C)C)C1 (configuration not stated) | -20.6% (inactive)
O=[N+]([O-])c1cccc(C(O)(C(F)(F)F)C(F)(F)F)c1 | 14% (inactive)
CCN=C(NCC)N(CC)CC | -11.8% (inactive)

Entry CC(C)c1ccc(/C=C2/CCCCC2=O)cc1 , growth inhibition reported as -24.9% (inactive)

---

# Lookup of reported growth inhibition keyed by entry
- procedure-text: NCI Yeast Anticancer Drug Screen. Data for the sgs1 mgt1 strain (AID 161);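 note: 0% = growth of cultures given vehicle only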
- experimental-context: S. cerevisiae sgs1 mgt1 strain, at 50.0 µM, hits give high values
About 79,000 compounds went through this panel and 15% of them were active in at least one assay; those are over-represented in the sample as a whole. Where a SMILES comes first, the peptide text is derived from it. [ ]: non-standard residue; d: D form. The star is where a group is joined. Phe(4-NO2) = N[CH](Cc1ccc([N+](=O)[O-])cc1)C(=O)O; Boc = CC(C)(C)OC(=O)*
# number only, unit % dropped from output

Recorded results for 3 molecules are shown here.
COC(=O)c1s/c(=N\C(=S)N(C)C)n(-c2ccc(Cl)cc2)c1C(=O)OC | -4.1
O/N=C(/Cc1ccccc1)c1ccccc1 | 11.1
CC(NC(=O)NC(C)(C)C)NC(=O)C(N)CC(=O)O (centres undefined) | -25.4

Entry CN(C)C1=CC(=O)NC(c2ccccc2)C1 (centres undefined) , growth inhibition reported as -10.6

Entry CC(=O)C(CCC#N)(CCC#N)C(=O)Nc1ccccc1 , growth inhibition reported as 3.35

Entry CC(Oc1cc(Cl)c(Cl)cc1Cl)C(=O)NC(Cc1ccccc1)C(=O)O (centres undefined) , growth inhibition reported as 13.5

Entry COC(=O)C1=Cc2cc(OC)c(OC)cc2[C@H](c2ccc(OC)c(OC)c2)C1C(=O)OC (some centres undefined) , growth inhibition reported as -31.4

Entry S=C(S)N(Cc1ccccc1)Cc1ccccc1 , growth inhibition reported as 27.2

Entry CC1(C)CC(=O)C(/C=N/C(=S)NC2CCCCC2)=C(O)C1 , growth inhibition reported as -31.5

Entry CCOc1ccc(NC(=O)C2=C(C)NC(C)=C(C(=O)Nc3ccc(OCC)cc3)C2c2ccccc2)cc1 , growth inhibition reported as -20.9

Entry Cc1ccc(Nc2nc(=O)[nH]c(=O)[nH]2)cc1N , growth inhibition reported as 20.3

Entry C/C=C/CNc1ccc(C)cc1 , growth inhibition reported as 25.7

Entry Nc1nc(N)c2nc3c(nc2n1)CCCC3 , growth inhibition reported as -18.3

Entry COC(=O)CCC(NC(=O)OC(C)(C)C)C(=O)NC(Cc1ccc([N+](=O)[O-])cc1)C(=O)NC(CCC(=O)OC)C(=O)OC (centres undefined) (Boc-Glu(OMe)-[Phe(4-NO2)]-Glu(OMe)-OMe; configuration not given here) , growth inhibition reported as 9.9

Entry CCCCc1ccc(Nc2c(C(=O)OCC)cnc3cc4c(cc23)OCO4)cc1 , growth inhibition reported as -15.2

Entry O=C1CC2COc3ccccc3C2=NN1c1ccccc1 (centres undefined) , growth inhibition reported as 4.7

Entry O=C(O)CN1C(=O)c2ccccc2C1=O , growth inhibition reported as -5.5

Entry NC(=O)NN1CC(=O)N(c2ccccc2)CC1=O , growth inhibition reported as 6.8

Entry Nc1nc(N)c2nonc2n1 , growth inhibition reported as -10.8

Entry O=C(O)C/C=C/CC(=O)O , growth inhibition reported as -2.7

Entry Cc1ccc(NC(=O)CCC(=O)C2Cc3ccccc3C2=O)cc1C (centres undefined) , growth inhibition reported as -5.05

Entry CCN(CC(=O)O)C(=O)c1cccnc1 , growth inhibition reported as -33.4

Entry O=[N+]([O-])c1ccc(N=Cc2ccccc2O)c(O)c1 , growth inhibition reported as 2.75

Entry Cc1ccccc1/C=N/Nc1ccc([N+](=O)[O-])cc1[N+](=O)[O-] , growth inhibition reported as -1.75

---

- procedure-text: NCI Yeast Anticancer Drug Screen. Data for the bub3 strain (AID 167)
- experimental-context: S. cerevisiae bub3 mutant strain, at 50.0 µM
- Description: Growth inhibition of yeast strains with defined genetic alterations is measured as a screen for potential anti-cancer activity. Selected strains with alterations in DNA damage repair or cell cycle control were exposed to compounds and growth inhibition was measured relative to vehicle treated controls. The strain used in this assay is bub3
This is part of a sample that, as a whole, favours compounds with a hit. Of some 79,000 tested, about 15% had one in any assay. The source made the active and inactive calls. No stated cut-off is given here; in the data, active means growth inhibition above about 70%; inactive means the rest.
Parameter call: string, one of y = active, n = inactive

Solved entries (count: 2):
CC(=O)c1ccccc1NS(=O)(=O)c1ccc2nc(C)n(NS(=O)(=O)c3ccccc3C(C)=O)c(=O)c2c1 | n
Oc1cccc2nc3ccccc3cc12 | n

Pending compound:
For O=C(Oc1c(Cl)cc([N+](=O)[O-])cc1[N+](=O)[O-])Sc1ccccc1 , which call appears in the assay record?
y

---

- procedure-text: NCI Yeast Anticancer Drug Screen. Data for the mlh1 rad18 strain (AID 175)
- experimental-context: S. cerevisiae mlh1 rad18 strain growth inhibition; at 50.0 µM; hits give high values
Compounds without any hit were thinned out: in the full panel of roughly 79,000, 15% have a hit.
assay-readout: growth inhibition (%)
# number only, unit % dropped from output

Recorded results for 5 molecules are shown here.
CCN(CC)CCSc1cc(C)c2ccc(N)nc2n1 | -1.1
N#CC(C#N)CN(C1=NCCO1)c1cccc2c1CCCC2 | 14.3
Cn1c(=O)ccc2c1nc1ccccc1[n+]2[O-] | -11.8
COc1cc(C)cc(O)c1C=O | 3.45
COC1OC(COS(=O)(=O)c2ccc(C)cc2)C(OS(=O)(=O)c2ccc(C)cc2)C1OCc1ccccc1 (centres undefined) | -1.4

Entry Cc1ccc(C(=O)c2ccccc2C(=O)O)cc1C(=O)O , growth inhibition reported as -7.05

Entry CCCCc1c[nH]n(C(N)=NCCSCc2nc[nH]c2C)c1=O , growth inhibition reported as -4.75

Entry O=c1c2cc3c(cc2[nH]c2ncccc12)OCO3 , growth inhibition reported as 26.3

Entry COC1OC(COC(=O)c2ccc([N+](=O)[O-])cc2)C(SC#N)C1O (centres undefined) , growth inhibition reported as 33.2

Entry O=C(O)CCNCCO , growth inhibition reported as 2.45

---

- procedure-text: NCI Yeast Anticancer Drug Screen. Data for the mec2-1 strain (AID 157)
- experimental-context: S. cerevisiae mec2-1 strain, at 50.0 µM, hits give high values
About 79,000 compounds went through this panel and 15% of them were active in at least one assay; those are over-represented in the sample as a whole.
assay-readout: growth inhibition (%)
# number only, unit % dropped from output

Recorded results for 2 compounds are shown here.
CCc1ccc(S(N)(=O)=O)cc1 | -4.1
CN(C)c1nc(-c2ccccc2)c(Cc2ccccc2)c(=O)o1 | -4.15

Entry O/N=C(/CN1CCOCC1)c1ccccc1 , growth inhibition reported as 7.9

Entry CC1(C(O)(c2ccccc2)c2ccccc2)CC1(c1ccccc1)c1ccccc1 (stereo unspecified) , growth inhibition reported as -2.4

---

# Lookup of reported growth inhibition keyed by entry
- procedure-text: NCI Yeast Anticancer Drug Screen. Data for the sgs1 mgt1 strain (AID 161);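 note: 0% = growth of cultures given vehicle only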
- experimental-context: S. cerevisiae sgs1 mgt1 strain, at 50.0 µM, hits give high values
This is part of a sample that, as a whole, favours compounds with a hit. Of some 79,000 tested, about 15% had one in any assay.
# number only, unit % dropped from output

Recorded results for 5 molecules are shown here.
O=C1NC(Cc2c[nH]c3ccccc23)C(=O)N2CCCC12 (stereo not drawn) | -7
CCOC(=O)[C@H]1Nc2ccc(Cl)cc2[C@H]2c3ccccc3O[C@H]21 | -23.1
CSc1nnc(SCc2nn3c(=O)cc(C)nc3s2)s1 | 0.4
C/C=C/C(=O)Oc1ccccc1/C=C/C(=O)CCCCCC | 23.6
CN1c2ccccc2C(=O)NC12CCN(CC1COc3ccccc3O1)CC2 (stereo not drawn) | 82.4

Entry C[CH2][Sn]([CH2]C)([n]1c2ccccc2c2c(C)c3cnccc3c(C)c21)[n]1c2ccccc2c2c(C)c3cnccc3c(C)c21 , growth inhibition reported as 25.5

Entry O=C1NC(=S)S/C1=C\c1ccncc1 , growth inhibition reported as -10.4

Entry NCCCCCCN1CCN(c2cccc(Cl)c2)CC1 , growth inhibition reported as 14.8

Entry CC1=C(C)C(=O)OC1 , growth inhibition reported as -0.9

Measured values drawn from PubChem BioAssay (NCI) for this set.
